assayProtocol: Tissue distribution assay
Assay type: in vivo, mouse
assayContext: male, C57/BL6, mouse, pancreas, po, 20 mg/kg, panc; 4 h after oral; Figure 5l, size of bubble; read-out: average APC content 4 h after oral
quantityName: concentration at 4 h (ng/g)
Answers are plain numbers, in ng/g.

Supply measured concentration at 4 h of CC(C)=CCc1cc(C=CC(=O)O)cc(CC=C(C)C)c1O [APC, 3,5-diprenyl-4-hydroxycinnamic acid] in your reply. 21.2

----------
assayProtocol: Tissue distribution assay
Format: in vivo, mouse
assayContext: male, C57/BL6, mouse, liver, po, 20 mg/kg, Live (liver); 4H; oral; individual mice; read-out: APC content in tissue
quantityName: concentration at 4 h (ng/g)
Answers are plain numbers, in ng/g.

Please list concentration at 4 h recorded for the compound CC(C)=CCc1cc(C=CC(=O)O)cc(CC=C(C)C)c1O [APC, 3,5-diprenyl-4-hydroxycinnamic acid] 729

----------
assayProtocol: Tissue distribution assay
Assay type: in vivo, mouse
assayContext: male, C57/BL6, mouse, spleen, po, 20 mg/kg, spleen; 4 h after oral; Figure 5l, Y; read-out: average APC content 4 h after oral
quantityName: concentration at 4 h (ng/g)
Give bare numbers, in ng/g.

Item CC(C)=CCc1cc(C=CC(=O)O)cc(CC=C(C)C)c1O [APC, 3,5-diprenyl-4-hydroxycinnamic acid] : provide concentration at 4 h 16.2

----------
assayProtocol: Tissue distribution assay
Assay type: in vivo, mouse
assayContext: male, C57/BL6, mouse, portal vein plasma, po, 20 mg/kg, po-portal vein plasma; 4 h after oral; Figure 5l, size of bubble; read-out: average APC content 4 h after oral
quantityName: concentration at 4 h (ng/g)
One number for each entry, in ng/g.

Supply reported concentration at 4 h belonging to this compound: CC(C)=CCc1cc(C=CC(=O)O)cc(CC=C(C)C)c1O [APC, 3,5-diprenyl-4-hydroxycinnamic acid] 48.5

----------
assayProtocol: Tissue distribution assay
Type: in vivo, mouse
assayContext: male, C57/BL6, mouse, liver, po, 20 mg/kg, avarage APC, Live (liver); 4H; oral; average; heading: avarage APC
quantityName: concentration at 4 h (ng/g)
Answers are plain numbers, in ng/g.

Please look at this compound and report its concentration at 4 h: CC(C)=CCc1cc(C=CC(=O)O)cc(CC=C(C)C)c1O [APC, 3,5-diprenyl-4-hydroxycinnamic acid] 917

----------
assayProtocol: Pharmacokinetic studies
Format: in vivo, mouse
assayContext: male, mouse, plasma, iv; ICR mice, i.v. 2 mg/kg
quantityName: AUC(0-t) (ng·h/mL)
Numbers only, in ng·h/mL.

Provide AUC(0-t) value for the following compound: CC(C)=CCc1cc(C=CC(=O)O)cc(CC=C(C)C)c1O [APC, 3,5-diprenyl-4-hydroxycinnamic acid] 428

----------
assayProtocol: Pharmacokinetic studies
Format: in vivo, mouse
assayContext: male, mouse, plasma, po; ICR mice, p.o. 20 mg/kg
quantityName: AUC(0-t) (ng·h/mL)
Give bare numbers, in ng·h/mL.

Quote AUC(0-t) reported for CC(C)=CCc1cc(C=CC(=O)O)cc(CC=C(C)C)c1O [APC, 3,5-diprenyl-4-hydroxycinnamic acid] please. 616

----------
assayProtocol: Tissue distribution assay
Type: in vivo, mouse
assayContext: male, C57/BL6, mouse, brain, po, 20 mg/kg, Brain; 8H; oral; individual mice; * below the detection line; read-out: APC content in tissue
quantityName: concentration at 8 h (ng/g)
Numbers only, in ng/g.

Identify concentration at 8 h associated with the molecule CC(C)=CCc1cc(C=CC(=O)O)cc(CC=C(C)C)c1O [APC, 3,5-diprenyl-4-hydroxycinnamic acid] 0

----------
assayProtocol: Tissue distribution assay
Assay type: in vivo, mouse
assayContext: male, C57/BL6, mouse, heart plasma, po, 20 mg/kg, heart plasma; PO; 4H; individual mice; read-out: APC-PO-heart-plasma
quantityName: concentration at 4 h (ng/mL)
Answers are plain numbers, in ng/mL.

Entry CC(C)=CCc1cc(C=CC(=O)O)cc(CC=C(C)C)c1O [APC, 3,5-diprenyl-4-hydroxycinnamic acid] needs its concentration at 4 h filled in; supply it. 41.8

----------
assayProtocol: Tissue distribution assay
Type: in vivo, mouse
assayContext: male, C57/BL6, mouse, heart plasma, po, 20 mg/kg, heart plasma; PO; 4H; average; read-out: avarage APC, APC-PO-heart-plasma
quantityName: concentration at 4 h (ng/mL)
Answers are plain numbers, in ng/mL.

Specify concentration at 4 h for CC(C)=CCc1cc(C=CC(=O)O)cc(CC=C(C)C)c1O [APC, 3,5-diprenyl-4-hydroxycinnamic acid] and stop. 48.5

----------
assayProtocol: Tissue distribution assay
Format: in vivo, mouse
assayContext: male, C57/BL6, mouse, spleen, po, 20 mg/kg, Spleen; 2H; oral; individual mice; read-out: APC content in tissue
quantityName: concentration at 2 h (ng/g)
Give bare numbers, in ng/g.

Supply measured concentration at 2 h of CC(C)=CCc1cc(C=CC(=O)O)cc(CC=C(C)C)c1O [APC, 3,5-diprenyl-4-hydroxycinnamic acid] in your reply. 15.6

----------
assayProtocol: Tissue distribution assay
Type: in vivo, mouse
assayContext: male, C57/BL6, mouse, white fat, po, 20 mg/kg, WF; 4 h after oral; Figure 5l, Y; read-out: average APC content 4 h after oral
quantityName: concentration at 4 h (ng/g)
One number for each entry, in ng/g.

# return recorded concentration at 4 h for entry CC(C)=CCc1cc(C=CC(=O)O)cc(CC=C(C)C)c1O [APC, 3,5-diprenyl-4-hydroxycinnamic acid] 32.7

----------
assayProtocol: Tissue distribution assay
Type: in vivo, mouse
assayContext: male, C57/BL6, mouse, spleen, po, 20 mg/kg, spleen; 4 h after oral; Figure 5l, size of bubble; read-out: average APC content 4 h after oral
quantityName: concentration at 4 h

Provide measured concentration at 4 h value, entry: CC(C)=CCc1cc(C=CC(=O)O)cc(CC=C(C)C)c1O [APC, 3,5-diprenyl-4-hydroxycinnamic acid] 16.2 ng/g

----------
assayProtocol: Tissue distribution assay
Type: in vivo, mouse
assayContext: male, C57/BL6, mouse, muscle, po, 20 mg/kg, Muscle; 4 h after oral; Figure 5l, size of bubble; read-out: average APC content 4 h after oral
quantityName: concentration at 4 h (ng/g)
Numbers only, in ng/g.

Consider the molecule CC(C)=CCc1cc(C=CC(=O)O)cc(CC=C(C)C)c1O [APC, 3,5-diprenyl-4-hydroxycinnamic acid] and give its recorded concentration at 4 h. 9.1

----------
assayProtocol: Tissue distribution assay
Type: in vivo, mouse
assayContext: male, C57/BL6, mouse, liver, po, 20 mg/kg, Live (liver); 2H; oral; individual mice; read-out: APC content in tissue
quantityName: concentration at 2 h (ng/g)
One number for each entry, in ng/g.

Please look at this compound and report its concentration at 2 h: CC(C)=CCc1cc(C=CC(=O)O)cc(CC=C(C)C)c1O [APC, 3,5-diprenyl-4-hydroxycinnamic acid] 756

----------
assayProtocol: Tissue distribution assay
Assay type: in vivo, mouse
assayContext: male, C57/BL6, mouse, heart plasma, po, 20 mg/kg, heart plasma; PO; 2H; individual mice; read-out: APC-PO-heart-plasma
quantityName: concentration at 2 h (ng/mL)
Numbers only, in ng/mL.

Query concentration at 2 h for CC(C)=CCc1cc(C=CC(=O)O)cc(CC=C(C)C)c1O [APC, 3,5-diprenyl-4-hydroxycinnamic acid] 32.1
